The origin of these recorded values is patent US20260042764A1.

molecular target: Avi-KRAS G12D (2-169) GTP/RAF1 RBD-3xFLAG (51-131) (Homo sapiens, UniProt P01116, G12D); construct: Avi-KRAS G12D (2-169); assay: Raf1-KRAS G12D-GTP disruption HTRF assay (Biological Example 3); type: binding; details: KRAS G12D, GTP-loaded
Sequence (P01116 2-169 isoform P01116-2 G12D): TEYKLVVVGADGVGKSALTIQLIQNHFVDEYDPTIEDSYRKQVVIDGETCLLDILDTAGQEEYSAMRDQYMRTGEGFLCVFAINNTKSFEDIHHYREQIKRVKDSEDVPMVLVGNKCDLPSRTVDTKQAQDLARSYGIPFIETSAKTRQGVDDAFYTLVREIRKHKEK
Recorded IC50 for the following compounds

Study these solved cases before continuing.
compound	IC50
N#Cc1c(N)sc2c(F)ccc(-c3c(C(F)(F)F)cc4c(N5CCc6ccncc6C5)nc(OC[C@@]56CCCN5C[C@H](F)C6)nc4c3F)c12	> 10000 nM
CCN(c1nc(OC[C@@]23CCCN2C[C@H](F)C3)nc2c(F)c(-c3ccc(F)c4sc(N)c(C#N)c34)c(C(F)(F)F)cc12)[C@H]1CCN(C(=O)C2CC2(F)F)C1 (stereo partly drawn)	≤ 100 nM
CCN(c1nc(OC[C@@]23CCCN2C[C@H](F)C3)nc2c(F)c(-c3ccc(F)c4sc(N)c(C#N)c34)c(C(F)(F)F)cc12)[C@H]1C[C@H](C)N(C(=O)COC)C1 (atropisomer, axis not shown)	≤ 100 nM
CCN(c1nc(OC[C@@]23CCCN2C[C@H](F)C3)nc2c(F)c(-c3ccc(F)c4sc(N)c(C#N)c34)c(C(F)(F)F)cc12)[C@H]1C[C@H](COC)N(C(=O)C2CC2)C1 (atropisomer, axis not shown)	≤ 100 nM
CN(C)C(=O)[C@@H]1CC[C@@H](N(C)c2nc(OC[C@@]34CCCN3C[C@H](F)C4)nc3c(F)c(-c4ccc(F)c5sc(N)c(C#N)c45)c(C(F)(F)F)cc23)C1 (atropisomer, axis not shown)	100 to 1000 nM

Item CC(=O)N1CC[C@H](N(CCF)c2nc(OC[C@@]34CCCN3C[C@H](F)C4)nc3c(F)c(-c4ccc(F)c5sc(N)c(C#N)c45)c(C(F)(F)F)cc23)C1 (atropisomer, axis not shown) has what recorded IC50?
≤ 100 nM

I have this compound here, CCN(c1nc(OC[C@@]23CCCN2C[C@H](F)C3)nc2c(F)c(-c3ccc(F)c4sc(N)c(C#N)c34)c(C(F)(F)F)cc12)[C@@H]1CC[C@H](C(=O)N(C)C)C1 , and I need its recorded IC50.
1000 to 10000 nM

Any idea what its IC50 is? The compound is CCN(c1nc(OC[C@@]23CCCN2C[C@H](F)C3)nc2c(F)c(-c3ccc(F)c4sc(N)c(C#N)c34)c(C(F)(F)F)cc12)[C@@H]1C[C@@H]2CCC(=O)N2C1
1000 to 10000 nM

Suppose we examine the compound CCN(c1nc(OC[C@@]23CCCN2C[C@H](F)C3)nc2c(F)c(-c3ccc(F)c4sc(N)c(C#N)c34)c(C(F)(F)F)cc12)[C@H]1C[C@H](C)N(C(=O)N2CC(OC)C2)C1 (atropisomer, axis not shown) ; what IC50 value has been reported?
≤ 100 nM

----------
Measured IC50, listed per entry for reference.
test system: GP2d cells (KRAS G12D); assay: Cell-based pERK HTRF assay in GP2d cell (Biological Example 2); conditions: GP2d, GP2d (KRAS G12D) cells, pERK HTRF

Here is how some molecules turned out for IC50.
entrySmiles	IC50
C[C@H]1CN(c2nc(OC[C@@]34CCCN3C[C@H](F)C4)nc3c(F)c(-c4ccc(F)c5sc(N)c(C#N)c45)c(C(F)(F)F)cc23)CCO1	< 100 nM
CC(=O)N1C[C@@H](F)[C@H](N(C)c2nc(OC[C@@]34CCCN3C[C@H](F)C4)nc3c(F)c(-c4ccc(F)c5sc(N)c(C#N)c45)c(C(F)(F)F)cc23)C1	< 100 nM
CC(=O)N1CCN(c2nc(OC[C@@]34CCCN3C[C@H](F)C4)nc3c(F)c(-c4ccc(F)c5sc(N)c(C#N)c45)c(C(F)(F)F)cc23)C[C@@H]1CC#N	100 to 1000 nM
CCC(=O)N1CC[C@@H](N(C)c2nc(OC[C@@]34CCCN3C[C@H](F)C4)nc3c(F)c(-c4ccc(F)c5sc(N)c(C#N)c45)c(Cl)cc23)[C@H]1C	< 100 nM

Let us examine a further case.
Recorded IC50 for CN(C)C(=O)CN(C)c1nc(OC[C@@]23CCCN2C[C@H](F)C3)nc2c(F)c(-c3ccc(F)c4sc(N)c(C#N)c34)c(C(F)(F)F)cc12 , please?
< 100 nM

----------
target: Avi-KRAS G12D (1-169) GppNHp/RAF1 RBD-3xFLAG (52-151) (Homo sapiens, UniProt P01116, G12D); construct: Avi-KRAS G12D (1-169); experiment: Raf1-KRAS G12D-GppNHP disruption HTRF assay (Biological Example 1); assay type: binding; conditions: KRAS G12D, GppNHp-loaded; Table 11
Sequence (P01116 1-169 isoform P01116-2 G12D): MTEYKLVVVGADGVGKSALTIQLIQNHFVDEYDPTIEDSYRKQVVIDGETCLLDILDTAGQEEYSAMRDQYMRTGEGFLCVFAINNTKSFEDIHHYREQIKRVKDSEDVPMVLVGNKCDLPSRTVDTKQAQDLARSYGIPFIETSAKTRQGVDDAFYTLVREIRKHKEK
pIC50: −log10 of the molar value.
assayReadout: pIC50

Here's what some known entries look like.
molecule	assayReadout	measured
CC(=O)N(C)[C@@H]1CCN(c2nc(OC[C@@]34CCCN3C[C@H](F)C4)nc3c(F)c(-c4ccc(F)c5sc(N)c(C#N)c45)c(C(F)(F)F)cc23)C1 [Compound 207]	pIC50	6.00 to 7.00
N#Cc1c(N)sc2c(F)ccc(-c3c(C(F)(F)F)cc4c(N5CCC[C@@H](O)C5)nc(OC[C@@]56CCCN5C[C@H](F)C6)nc4c3F)c12 [Compound 234]	pIC50	6.00 to 7.00

Return reported pIC50; argument: C[C@H]1C[C@H](O)CCN1c1nc(OC[C@@]23CCCN2C[C@H](F)C3)nc2c(F)c(-c3ccc(F)c4sc(N)c(C#N)c34)c(C(F)(F)F)cc12 [Compound 246]
6.00 to 7.00

So what's the measured pIC50 for this one? N#Cc1c(N)sc2c(F)ccc(-c3c(C(F)(F)F)cc4c(N5CCCOCC5)nc(OC[C@@]56CCCN5C[C@H](F)C6)nc4c3F)c12 [Compound 232]
> 7.00

Endpoint output: pIC50 of Nc1nc2c(-c3c(C(F)(F)F)cc4c(N[C@H]5CC[C@H](O)CC5)nc(OCC56CCCN5CCC6)nc4c3F)ccc(F)c2s1 [Compound 63] . Value?
5.00 to 6.00

Entry CC1(O)CCN(c2nc(OC[C@@]34CCCN3C[C@H](F)C4)nc3c(F)c(-c4ccc(F)c5sc(N)c(C#N)c45)c(C(F)(F)F)cc23)CC1 [Compound 228] : reported pIC50 = ?
6.00 to 7.00

Which pIC50 is reported for this molecule? CN(c1nc(OC[C@@]23CCCN2C[C@H](F)C3)nc2c(F)c(-c3ccc(F)c4sc(N)c(C#N)c34)c(C(F)(F)F)cc12)[C@H]1CCS(=O)(=O)C1 (single isomer, unassigned) [Compound 221]
6.00 to 7.00

Consider the molecule shown here: C[C@]1(O)CCCN(c2nc(OC[C@@]34CCCN3C[C@H](F)C4)nc3c(F)c(-c4ccc(F)c5sc(N)c(C#N)c45)c(C(F)(F)F)cc23)C1 [Compound 241] What is its recorded pIC50?
6.00 to 7.00

# get_value(readout='pIC50', item= CO[C@H]1CN2CCC[C@@]2(COc2nc(N(C)[C@H]3C[C@@H](O)C3)c3cc(C(F)(F)F)c(-c4ccc(F)c5sc(N)nc45)c(F)c3n2)C1 (atropisomer, axis not shown) [Compound 13] )
6.00 to 7.00

Quick check: pIC50 of CCN(c1nc(OC[C@@]23CCCN2C[C@H](F)C3)nc2c(F)c(-c3ccc(F)c4sc(N)c(C#N)c34)c(C(F)(F)F)cc12)[C@@H]1CCN(C(C)=O)C1 [Compound 268] ?
> 7.00

What does the data say about its pIC50? Entry: C[C@H]1COC[C@H](C)N1c1nc(OC[C@@]23CCCN2C[C@H](F)C3)nc2c(F)c(-c3ccc(F)c4sc(N)c(C#N)c34)c(C(F)(F)F)cc12 [Compound 200]
5.00 to 6.00

----------
Below, each of the compounds is paired with its reported pIC50 value.
Tested on: GP2d cells (KRAS G12D)
Assay: Cell-based pERK HTRF assay in GP2d cell (Biological Example 2)
Settings: GP2d, GP2d (KRAS G12D) cells, pERK HTRF
Method: A pERK assay (Perkin Elmer) was used to determine the effectiveness of compounds in disrupting KRAS G12D protein/effector signaling in cells. […] Samples were homogenized by pipetting up and down and then transferred (16 μL of cell lysates) from the 96-well cell culture plate to two wells of the HTRF 384-well detection plate containing the antibody solution. […] Therefore, readings can be made between 4 and 24 h of incubation. […]
pIC50: −log10 of the molar value.

compound	assayReadout	measured
C[C@@H]1COC[C@H](C)N1c1nc(OC[C@@]23CCCN2C[C@H](F)C3)nc2c(F)c(-c3ccc(F)c4sc(N)c(C#N)c34)c(C(F)(F)F)cc12 [Compound 201]	pIC50	> 7.00

Param readout = pIC50; param system = GP2d cells (KRAS G12D); param query = CCN(CCC#N)c1nc(OC[C@@]23CCCN2C[C@H](F)C3)nc2c(F)c(-c3ccc(F)c4sc(N)c(C#N)c34)c(C(F)(F)F)cc12 [Compound 166] ; response: value
> 7.00

Param readout= pIC50; system= GP2d cells (KRAS G12D); entry= CCN(c1nc(OC[C@@]23CCCN2C[C@H](F)C3)nc2c(F)c(-c3ccc(F)c4sc(N)c(C#N)c34)c(C(F)(F)F)cc12)[C@H]1C[C@@H](C)N(C(=O)N(C)C)C1 (atropisomer, axis not shown) [Compound 558] ; returns value.
> 7.00

What measured pIC50 is associated with COC(=O)N1CC[C@@H](N(C)c2nc(OC[C@@]34CCCN3C[C@H](F)C4)nc3c(F)c(-c4ccc(F)c5sc(N)c(C#N)c45)c(C(F)(F)F)cc23)[C@H]1C [Compound 410] on GP2d cells (KRAS G12D)?
> 7.00

Test system GP2d cells (KRAS G12D); read-out pIC50; what value for CN(c1nc(OC[C@@H]2C[C@@H](F)CN2C)nc2c(F)c(-c3ccc(F)c4sc(N)nc34)c(C(F)(F)F)cc12)C1CC(O)C1 (some centres unmarked) [Compound 12] ?
< 6.00
